- target.or.system: Adrenergic receptor alpha-1 (Homo sapiens, UniProt P35348+P25100+P35368)
- protocol.details: Binding affinity to adrenergic alpha-1 receptor
- Format: protein assay
parameter.measured: Ki (nM)

COc1ccc(-c2cc3c(=O)n(CCN4CCN(c5ccccc5OC)CC4)c(=O)[nH]c3[nH]2)cc1 | 5.47

A. COc1ccccc1N1CCN(CCn2c(=O)[nH]c3[nH]c(-c4ccccc4Cl)cc3c2=O)CC1
B. O=c1[nH]c2[nH]c(-c3ccccc3Cl)cc2c(=O)n1CCN1CCN(c2ccccc2Cl)CC1
input: Returns the identifier with the smallest measured Ki among A and B . Identify your selection by its label.
output: A
(A: 2.18 nM, B: 6.28 nM)

P. Cc1ccc(-c2cc3c(=O)n(CCN4CCN(c5ccccc5Cl)CC4)c(=O)[nH]c3[nH]2)cc1
Q. Cc1ccccc1-c1cc2c(=O)n(CCN3CCN(c4ccccc4Cl)CC3)c(=O)[nH]c2[nH]1
input: Hey, between P and Q which has a smaller measured Ki? # respond with the chosen item's label
output: Q
(Q: 2.8 nM, P: 11.71 nM)
